experimental.system: Tyrosinase (Agaricus bisporus)
Sequence (O42713 whole entry): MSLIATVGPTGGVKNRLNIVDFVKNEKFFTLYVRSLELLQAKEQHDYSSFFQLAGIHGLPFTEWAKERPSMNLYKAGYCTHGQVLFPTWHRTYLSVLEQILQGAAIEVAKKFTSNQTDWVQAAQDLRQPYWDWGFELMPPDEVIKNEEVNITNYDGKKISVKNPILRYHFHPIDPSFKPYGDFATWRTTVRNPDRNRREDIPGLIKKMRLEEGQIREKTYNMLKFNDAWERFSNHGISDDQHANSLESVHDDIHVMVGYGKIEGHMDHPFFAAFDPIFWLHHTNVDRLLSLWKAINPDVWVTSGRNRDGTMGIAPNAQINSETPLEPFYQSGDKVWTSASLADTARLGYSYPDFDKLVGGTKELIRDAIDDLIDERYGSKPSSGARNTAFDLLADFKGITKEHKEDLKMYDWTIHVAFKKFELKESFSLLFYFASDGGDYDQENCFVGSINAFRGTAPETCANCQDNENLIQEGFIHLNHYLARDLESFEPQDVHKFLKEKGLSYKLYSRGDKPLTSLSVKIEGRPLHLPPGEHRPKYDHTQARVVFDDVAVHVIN
measurement.context: read-out: IC50
Description: Inhibition of Agaricus bisporus (mushroom) tyrosinase
Lab note: compare IC50 with 60 µM, writing class 1 if less and class 0 if equal or more.

Illustrative cases are given below, each with its answer.
[[record]]
molecule = "O=C(O)c1cccnc1S"
assigned_class = "class 0"

[[record]]
molecule = "O=C(O)c1cccnc1"
assigned_class = "class 0"

[[record]]
molecule = "O=C(O)c1ccc(Cl)nc1"
assigned_class = "class 0"

[[record]]
molecule = "C/C(=N\\C#N)N(C)Cc1ccc(Cl)nc1"
assigned_class = "class 0"

[[record]]
molecule = "CN/C(=N\\[N+](=O)[O-])NCc1cnc(Cl)s1"
assigned_class = "class 0"

[[record]]
molecule = "Oc1ncnc2[nH]ncc12"
assigned_class = "class 0"

[[record]]
molecule = "O=C(O)c1ccccc1"
assigned_class = "class 0"

[[record]]
molecule = "CCN(Cc1ccc(Cl)nc1)/C(=C/[N+](=O)[O-])NC"
assigned_class = "class 0"


Please indicate whether the reported IC50 of O=Cc1ccc(O)cc1 [4-HYDROXYBENZALDEHYDE] is strictly below 60 µM.
class 0

Please indicate whether the reported IC50 of O=Cc1ccoc1 is strictly below 60 µM.
class 1

Please indicate whether the reported IC50 of CN/C(=N/CC1CCOC1)N[N+](=O)[O-] (stereo not drawn) is strictly below 60 µM.
class 0

Please indicate whether the reported IC50 of O=C(O)c1ccc(S)nc1 is strictly below 60 µM.
class 1

Please indicate whether the reported IC50 of O=CC1CCOC1 (stereo not drawn) [TETRAHYDROFURAN-3-CARBALDEHYDE] is strictly below 60 µM.
class 0

Please indicate whether the reported IC50 of CN1COCN(Cc2cnc(Cl)s2)/C1=N\[N+](=O)[O-] is strictly below 60 µM.
class 0

Please indicate whether the reported IC50 of O=Cc1cnc(Cl)s1 is strictly below 60 µM.
class 0

Please indicate whether the reported IC50 of O=Cc1ccc(Cl)nc1 is strictly below 60 µM.
class 0

Please indicate whether the reported IC50 of O=Cc1cccnc1 is strictly below 60 µM.
class 1

Please indicate whether the reported IC50 of O=Cc1cncs1 is strictly below 60 µM.
class 1

Please indicate whether the reported IC50 of O=Cc1cccnc1Cl is strictly below 60 µM.
class 0

Please indicate whether the reported IC50 of O=C(O)c1cnc(Cl)s1 is strictly below 60 µM.
class 0

Please indicate whether the reported IC50 of O=Cc1ccco1 is strictly below 60 µM.
class 1

Please indicate whether the reported IC50 of O=C(O)C1CCOC1 (stereo not drawn) is strictly below 60 µM.
class 0

Please indicate whether the reported IC50 of O=C(O)c1ccc(Cl)cc1O is strictly below 60 µM.
class 0
